The values you see were collected from patent US20230055711A1.

# log10 of Kd per entry
TARGET_OR_TEST_SYSTEM: recombinant human BCMA-his protein (Acro biosystems, Cat #BCA-H522Y) (human) (UniProt Q02223)
Sequence (Q02223 1-54, stated change not applied): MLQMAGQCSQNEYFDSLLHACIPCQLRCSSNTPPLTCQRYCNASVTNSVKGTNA
ASSAY_PROCEDURE: BLI Octet RED96, antibody on AHC sensor, BCMA-his in solution
Base-10 log of Kd, unit nM.

{"BINDER": "huB1H2-V4 (antibody, human IgG1, kappa, V domains shown) VH: QVQLVQSGAEVKKPGASVKVSCKASGYTLTNYVMHWVRQAPGQGLEWIGFIIPFNDGTKYNEHFKGRVTITSDTSISTAYMQLSSLRSEDTAVYYCARYDFEGYFDVWGQGTLVTVSS VL: DIQMTQSPSSLSASVGDRVTITCSASQDITNFLNWYQQKPGKTVKLLIYSTSRLHSGVPSRFSGSGSGTDYTFTISSLQPEDIATYYCQQYSNLPWTFGQGTKVEIKR", "log10 of Kd": -0.57}
{"BINDER": "huB1H2-V18 (antibody, human IgG1, kappa, V domains shown) VH: QVQLVQSGAEVKKPGASVKVSCKASGYTLTNYVMHWVRQAPGQGLEWIGFIIPFNDGTKYNEHFKGRVTITSDKSISTAYMQLSSLRSEDTAVYYCARYDFEGYFDVWGQGTLVTVSS VL: DIQMTQSPSSLSASVGDRVTITCSASQDITNFLNWYQQKPGKAVKLLIYSTSRLHSGVPSRFSGSGSGTDFTLTISSLQPEDIATYYCQQYSNLPWTFGQGTKVEIKR", "log10 of Kd": 0.35}
{"BINDER": "huB1H2-V17 (antibody, human IgG1, kappa, V domains shown) VH: QVQLVQSGAEVKKPGASVKVSCKASGYTLTNYVMHWVRQAPGQGLEWIGFIIPFNDGTKYNEHFKGRVTITRDKSISTAYMQLSSLRSEDTAVYYCARYDFEGYFDVWGQGTLVTVSS VL: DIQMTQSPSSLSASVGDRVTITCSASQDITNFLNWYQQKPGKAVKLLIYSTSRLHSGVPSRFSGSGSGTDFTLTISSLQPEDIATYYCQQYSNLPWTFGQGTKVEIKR", "log10 of Kd": 0.96}
{"BINDER": "huB1H2-V33 (antibody, human IgG1, kappa, V domains shown, Humanized IgG1/kappa; cell supernatant in the Octet assay, purified antibody in Biacore, ELISA and FACS) VH: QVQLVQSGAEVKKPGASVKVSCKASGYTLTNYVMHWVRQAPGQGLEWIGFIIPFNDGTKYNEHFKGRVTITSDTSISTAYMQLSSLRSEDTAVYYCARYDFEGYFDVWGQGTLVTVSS VL: DIQMTQSPSSLSASVGDRVTITCSASQDITNFLNWYQQKPGKAPKLLIYSTSRLHSGVPSRFSGSGSGTDFTFTISSLQPEDIATYYCQQYSNLPWTFGQGTKVEIKR", "log10 of Kd": -0.46}

// query log10 of Kd value for entry huB1H2-V24 (antibody, human IgG1, kappa, V domains shown) VH: QVQLVQSGAEVKKPGASVKVSCKASGYTLTNYVMHWVRQAPGQGLEWIGFIIPFNDGTKYNEHFKGRVTITSDKSISTAYMQLSSLRSEDTAVYYCARYDFEGYFDVWGQGTLVTVSS VL: DIQMTQSPSSLSASVGDRVTITCSASQDITNFLNWYQQKPGKAPKLLIYSTSRLHSGVPSRFSGSGSGTDYTLTISSLQPEDIATYYCQQYSNLPWTFGQGTKVEIKR
0.79

// query log10 of Kd value for entry huB1H2-V16 (antibody, human IgG1, kappa, V domains shown) VH: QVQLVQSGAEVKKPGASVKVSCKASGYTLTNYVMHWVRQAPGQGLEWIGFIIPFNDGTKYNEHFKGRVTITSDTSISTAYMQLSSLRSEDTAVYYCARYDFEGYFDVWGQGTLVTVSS VL: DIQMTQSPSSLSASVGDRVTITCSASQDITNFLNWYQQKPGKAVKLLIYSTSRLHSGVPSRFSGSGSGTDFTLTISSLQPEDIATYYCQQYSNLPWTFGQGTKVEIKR
0.54

// query log10 of Kd value for entry huB1H2-V19 (antibody, human IgG1, kappa, V domains shown) VH: EVQLVQSGAEVKKPGSSVKVSCKASGYTLTNYVMHWMRQAPGQGLEWIGFIIPFNDGTKYNEHFKGRATLTSDKSTNTAYMELSSLRSEDTAVYYCARYDFEGYFDVWGAGTLVTVSS VL: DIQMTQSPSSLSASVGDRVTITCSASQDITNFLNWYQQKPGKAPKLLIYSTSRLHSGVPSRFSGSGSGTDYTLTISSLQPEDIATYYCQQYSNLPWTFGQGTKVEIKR
0.42
